# Lookup of reported melting point keyed by entry

Examples with answers:
- COMPOUND: "Cc1cc2nnc(S)n2c(C)n1"
  melting point: "250 to 252 °C"
- COMPOUND: "COCc1ccccc1CNC(=O)CCl"
  melting point: "51 to 53 °C"
- COMPOUND: "COC(=O)c1c(C(=O)OC)c(-c2ccc(N)cc2)n2c1CCC2"
  melting point: "182 to 184 °C"
- COMPOUND: "CC(=O)c1c(Cl)nc2sccn12"
  melting point: "159 to 161 °C"
- COMPOUND: "COc1ccc(S(=O)(=O)NC(C)(C)C)c(CC(=O)O)c1"
  melting point: "198 to 200 °C"

get_value(item= Cc1[nH]c2ccccc2c1C(=O)CBr , readout=melting point) returns 203 to 205 °C

get_value(item= CC(O)c1ccc(Oc2ccc(Br)cc2)cc1 (stereo not drawn) , readout=melting point) returns 67 to 69 °C

get_value(item= COc1nc2sccn2c1C=O , readout=melting point) returns 130 to 132 °C

Attribution: a melting point compilation (Tetko et al.)
